Biological target: T1, fHbp m002335 (Neisseria meningitidis; fHbp …, chimera)
T1 chain: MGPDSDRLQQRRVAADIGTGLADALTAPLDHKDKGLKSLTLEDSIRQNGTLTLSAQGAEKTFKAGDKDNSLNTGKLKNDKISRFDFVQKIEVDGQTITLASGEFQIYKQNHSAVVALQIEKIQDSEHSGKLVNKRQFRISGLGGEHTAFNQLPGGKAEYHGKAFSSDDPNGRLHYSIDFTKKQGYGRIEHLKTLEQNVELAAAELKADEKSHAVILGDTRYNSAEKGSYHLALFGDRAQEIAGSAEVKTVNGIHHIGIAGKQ
Test: BLI
Details: both partners purified
pKd: −log10 of the molar value.
endpoint: pKd

binder	endpoint	observed
mAb 4B3 (human) (antibody, V domains shown, also called 4B3-2; source: Expi293, purified (MabSelect SuRe, SEC); copies: 2 + 2) VH: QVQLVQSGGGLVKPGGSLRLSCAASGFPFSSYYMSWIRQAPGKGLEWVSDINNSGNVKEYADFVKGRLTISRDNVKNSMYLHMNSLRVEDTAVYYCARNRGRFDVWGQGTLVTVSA VL: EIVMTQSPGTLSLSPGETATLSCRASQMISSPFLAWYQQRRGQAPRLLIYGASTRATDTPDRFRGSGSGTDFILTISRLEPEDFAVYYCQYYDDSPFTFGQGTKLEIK	pKd	8.29
chimeric antibody hJAR5 (antibody, V domains shown, also called hJAR5-2; humanized JAR5; source: Expi293, purified (MabSelect SuRe, SEC); copies: 2 + 2) VH: QVQMQQPGAELVKPGASVKLSCKASGYTFISYWMHWVKQRPGRGLEWIGRIAPDTGIIYYNEKFKNKATLTVDTPSSTAYMQLNSLTSEDSAVYYCARYLKYDGSTYRFDYWGQGTTLTVSS VL: DIVMTQAAPSVPVTPGESVSISCRSSKSLLHSNGNTYLFWFLQRPGQSPQLLIYRMSNLASGVPDRFSGSGSGTSFTLRISRVEAEDVGVYYCMQHLEYPYTFGGGTKLEIK	pKd	9.05
chimeric antibody h12C1 (antibody, V domains shown, also called humanized 12C1; source: Expi293, purified (MabSelect SuRe, SEC); copies: 2 + 2) VH: QVQLQESGPELVKPGASVKISCKASGYSFSDYNMSWVKQSNGKSLEWIGIIDPKYGTINYNQKFKGKATLTVDQASSTAYMQLNSLTSEDSAVYYCVRDYYGSSYFDYWGQGTTLTVSS VL: DIVLTQSPSSIYASLGERVTLTCKASQDIHNYLNWFQQKPGKSPKTLIYRANRLVDGVPSRFSGGGSGQDYSLTISSLEFEDIGIYYCLQYDEFPPTFGGGTRLEIK	pKd	9.63
